Attribute: IC50
# System: LPA 18:2 level in mouse plasma
# Assay Summary: In vitro LPA assay, reduction of LPA 18:2 level in mouse plasma (LC-MS/MS)
# Type: biochemical
# Test Parameters: 2 hr at 37° C., LPA 18:2 reduction
Structures can show the parent of a compound that is named as a salt.
Property Label: IC50

| Molecule | Result |
| --- | --- |
| CCc1nc2c(C)cc(N3CCN(CC(=O)N4CC(O)C4)CC3)cn2c1N(C)c1nc(-c2ccc(F)cc2)c(C#N)s1 [GPLG-1690, Ziritaxestat, reference compound] | > 0.8 µM |
| CCc1nc2ccc(-c3ccc(N4CCN(C(=O)C5(CO)CC5)CC4)nc3)cn2c1N(C)c1nc(-c2ccc(F)cc2)c(C#N)s1 | 0.2 to 0.8 µM |
| CCc1nc2ccc(-c3ccc(N4CC(C(=O)N5CCC5)C4)nc3)cn2c1N(C)c1nc(-c2ccc(F)cc2)c(C#N)s1 | 0.2 to 0.8 µM |
| CCc1nc2ccc(-c3ccc(N4CCC(C(=O)N5CCOCC5)CC4)nc3)cn2c1N(C)c1nc(-c2ccc(F)cc2)c(C#N)s1 | 0.2 to 0.8 µM |
| CCc1nc2ccc(-c3ccc(N4CCC(C(=O)N5CCCCC5)CC4)nc3)cn2c1N(C)c1nc(-c2ccc(F)cc2)c(C#N)s1 | 0.2 to 0.8 µM |
| CCc1nc2ccc(-c3cnc(N4CCN(C(=O)C5CN(C)C5)CC4)nc3)cn2c1N(C)c1nc(-c2ccc(F)cc2)c(C#N)s1 [79 (hydrochloride salt)] | 0.2 to 0.8 µM |

###

# Tested On: hATX/ENPP2 (Homo sapiens, UniProt Q13822)
# Assay Summary: hATX/ENPP2 biochemical assay using 16:0-LPC as substrate (Amplex Red/choline oxidase/HRP fluorescence)
# Test Parameters: hENPP2 2.5 nM, LPC (16:0) substrate
pIC50: −log10 of the molar value. Where a name gives a salt, the structure may show the parent alone.

| Molecule | pIC50 |
| --- | --- |
| CCc1nc2ccc(-c3cnc(NC4CN(C(=O)N5CC(O)C5)C4)nc3)cn2c1N(C)c1nc(-c2ccc(F)cc2)c(C#N)s1 | 6.70 to 7.70 |
| CCc1nc2ccc(-c3cnc(N4CCC(NC(=O)C5(C#N)CC5)CC4)nc3)cn2c1N(C)c1nc(-c2ccc(F)cc2)c(C#N)s1 | 6.70 to 7.70 |
| CCc1nc2ccc(-c3cnc(NCC4CN(C(=O)N5CC(O)C5)C4)nc3)cn2c1N(C)c1nc(-c2ccc(F)cc2)c(C#N)s1 | 6.70 to 7.70 |
| CCc1nc2ccc(-c3cnc(C(=O)NC4(C#N)CC4)nc3)cn2c1N(C)c1nc(-c2ccc(F)cc2)c(C#N)s1 | 6.70 to 7.70 |
| CCc1nc2ccc(-c3cnc(N4CCN(C(=O)NC5CNC5)CC4)nc3)cn2c1N(C)c1nc(-c2ccc(F)cc2)c(C#N)s1 [66 (hydrochloride salt)] | ≥ 7.70 |
| CCc1nc2ccc(-c3ccc(N4CCN(C(=O)NC5CCNCC5)CC4)nc3)cn2c1N(C)c1nc(-c2ccc(F)cc2)c(C#N)s1 | 6.70 to 7.70 |

###

Attribute: pIC50
# Test system: LPA 18:2 level in mouse plasma
# Assay Summary: In vitro LPA assay, reduction of LPA 18:2 level in mouse plasma (LC-MS/MS)
# Format: biochemical
# Test Parameters: 2 hr at 37° C., LPA 18:2 reduction
pIC50: −log10 of the molar value. Structures can show the parent of a compound that is named as a salt.

| Molecule | pIC50 |
| --- | --- |
| CCc1nc2ccc(-c3ccc(C(=O)N4CCCC4)nc3)cn2c1N(C)c1nc(-c2ccc(F)cc2)c(C#N)s1 | 6.10 to 6.70 |
| CCc1nc2ccc(-c3cnc(N4CCC(C(=O)N5CCC5)CC4)nc3)cn2c1N(C)c1nc(-c2ccc(F)cc2)c(C#N)s1 | 6.10 to 6.70 |
| CCc1nc2ccc(-c3ccc(N4CCN(C(=O)C5CN(C)C5)CC4)nc3)cn2c1N(C)c1nc(-c2ccc(F)cc2)c(C#N)s1 [Compound 86 hydrochloride] | < 6.10 |
